The measurements presented in this section are drawn from PubChem BioAssay AID248.

Tested on: L1210 leukemia ip in BDF1 mice, survival T/C
experimental.protocol: NCI In Vivo Anticancer Drug Screen. Data for tumor model L1210 Leukemia (intraperitoneal) in B6D2F1 (BDF1) mice
experimental.conditions: endpoint: mean survival time; dose: 200.0 mg/kg/injection; schedule: Q01DX009 (ip); vehicle: saline with Tween-80; higher = longer survival
Procedure: The antitumor activity of compounds was measured in mice bearing transplantable tumors. Survival or tumor size were measured and the results are expressed as the measurement made in the treated group (T) divided by the measurement made in the vehicle treated control group (C). The tumor model used in this assay is L1210 Leukemia (intraperitoneal) in B6D2F1 (BDF1) mice
Toxic doses and inconclusive results are not listed.
quantity: T/C

1) N#CC(CC(=O)c1ccccc1)c1ccccc1 (centres undefined) ... 100 % of control

Exercise: What measured T/C goes with O=S(=O)(Nc1cc(Cl)ccc1Cl)c1ccc(Cl)cc1 ?
Key: 102 % of control

Exercise: What measured T/C goes with COc1ccc(OC(=O)Nc2c(C)cccc2C)cc1 ?
Key: 91 % of control

Exercise: What measured T/C goes with CC(=O)OC1CC2C=CC1C2 (centres undefined) (tested in a mixture with another compound) ?
Key: 92 % of control

###

Tested on: L1210 leukemia ip in BDF1 mice, survival T/C
experimental.protocol: NCI In Vivo Anticancer Drug Screen. Data for tumor model L1210 Leukemia (intraperitoneal) in B6D2F1 (BDF1) mice
experimental.conditions: endpoint: mean survival time; dose: 200.0 mg/kg/injection; schedule: Q01DX009 (ip); vehicle: saline with Tween-80; higher = longer survival
Toxic doses and inconclusive results are not listed.
quantity: T/C

# count of solved cases: 5
1. COc1cc(CC(=O)O)c(OC)cc1CC(=O)O ... 99 % of control
2. CSC(N)=Nc1ccc(C(=O)O)cc1 ... 112 % of control
3. c1ccc(NC23CC4CC(CC(C4)C2)C3)cc1 ... 88 % of control
4. CC(C)(C)c1cc(C(C)(C)C)c(O)c(C(C)(C)C)c1 ... 96 % of control
5. CC(C)=CCC/C(C)=C/CN1C(=O)CC(C)=C(C)C1=O ... 95 % of control

Exercise: What measured T/C goes with O=S1(=O)N=C(c2ccccc2)CC(c2ccccc2)N1 (stereo not drawn) ?
Key: 93 % of control

Exercise: What measured T/C goes with O=C1OC(=O)C2C3CC(C(Br)C3C(F)(Br)Br)C12 (stereo not drawn) ?
Key: 93 % of control

Exercise: What measured T/C goes with CCOP(=S)(OCC)SC(C)c1ccccc1 (stereo not drawn) ?
Key: 100 % of control

Exercise: What measured T/C goes with COCCCNc1ccc(S(=O)(=O)c2ccc(N)cc2)cc1 ?
Key: 95 % of control

Exercise: What measured T/C goes with CC1(CC(O)(C(F)(F)F)C(F)(F)F)NC(=O)NC1=O (stereo not drawn) ?
Key: 99 % of control

###

Test system: L1210 leukemia ip in BDF1 mice, survival T/C
experimental.protocol: NCI In Vivo Anticancer Drug Screen. Data for tumor model L1210 Leukemia (intraperitoneal) in B6D2F1 (BDF1) mice
experimental.conditions: endpoint: mean survival time; dose: 200.0 mg/kg/injection; schedule: Q01DX009 (ip); vehicle: saline; higher = longer survival
Inconclusive results and toxic doses are left out.
Listed here are compounds together with their documented T/C.

# count of solved cases: 3
1) CCOC(=O)CCN1CC(C)OC(C)C1 (stereo unspecified) ... 97 % of control
2) CC(=O)NS(=O)(=O)c1ccc(N=Cc2cc(Cl)cc(Cl)c2O)cc1 ... 102 % of control
3) COc1cc(N[Si](C)(C)C)nc(OC)n1 ... 92 % of control

Exercise: What measured T/C goes with O=C1O/C(=C/c2ccccc2)C2CCCCC12 (stereo unspecified) ?
Key: 93 % of control

Exercise: What measured T/C goes with Cc1ccc(S(=O)(=O)C2=C(c3ccccc3)c3ccccc3CC2)cc1 ?
Key: 91 % of control

Exercise: What measured T/C goes with OC(c1ccccc1)(c1ccccc1)C1CCCCC1C(O)(c1ccccc1)c1ccccc1 (stereo unspecified) ?
Key: 93 % of control

###

System: L1210 leukemia ip in BDF1 mice, survival T/C
experimental.protocol: NCI In Vivo Anticancer Drug Screen. Data for tumor model L1210 Leukemia (intraperitoneal) in B6D2F1 (BDF1) mice
experimental.conditions: endpoint: mean survival time; dose: 50.0 mg/kg/injection; schedule: Q01DX009 (ip); vehicle: saline with Tween-80; higher = longer survival
Toxic doses and inconclusive results are not listed.
quantity: T/C

# count of solved cases: 10
1. Cc1ccc2cccc(CC(=O)NN)c2c1 ... 102 % of control
2. CCN(C(=O)Nc1ccccc1F)c1cc(OC)ccc1C ... 91 % of control
3. O=C(CC(O)(C(F)(F)F)C(F)(F)F)c1cccs1 ... 109 % of control
4. O=C(CNC(=O)Nc1cccc(Cl)c1Cl)N/N=C/c1ccccc1O ... 104 % of control
5. CN(C)c1ccc(/C=N\NC(=S)Nc2ccccc2)c(Cl)c1 ... 97 % of control
6. C[n+]1cccc(C(=O)N/N=C/C=C/c2ccccc2)c1 ... 96 % of control
7. Cc1c(Cl)cccc1CC(Cl)C#N (centres undefined) ... 87 % of control
8. c1cnc2sccc2c1 ... 113 % of control
9. NC(=O)c1ccccc1C(Cl)(Cl)Cl ... 88 % of control
10. CCOC(=O)C1(C(C)C)OC2(O)C3CCCN3CC(C(C)C)N2C1=O (centres undefined) ... 103 % of control

Exercise: What measured T/C goes with N#CCCCCN1C(=O)c2ccccc2C1=O ?
Key: 94 % of control

Exercise: What measured T/C goes with CC1=CC(=O)C(c2ccccc2)CC1 (centres undefined) (tested in a mixture with another compound) ?
Key: 96 % of control

Exercise: What measured T/C goes with CCCCNC(=O)C1C=C2c3cccc4c3C(CN4)CC2N(C)C1 (centres undefined) ?
Key: 89 % of control

Exercise: What measured T/C goes with CC(C)(C)c1ccc2c(c1)CCCC2 ?
Key: 93 % of control

###

Listed here are molecules together with their documented T/C.
System: L1210 leukemia ip in BDF1 mice, survival T/C
experimental.protocol: NCI In Vivo Anticancer Drug Screen. Data for tumor model L1210 Leukemia (intraperitoneal) in B6D2F1 (BDF1) mice
experimental.conditions: endpoint: mean survival time; dose: 25.0 mg/kg/injection; schedule: Q04DX002 (ip); vehicle: Klucel (hydroxypropylcellulose) (HPC); higher = longer survival
Inconclusive results and toxic doses are left out.

# count of solved cases: 4
1. NC(=O)C(CCC(=O)O)NC(=O)OCc1ccccc1 (centres undefined) ... 100 % of control
2. COc1ccc(OC)c(NC(=S)N/N=C(\C)c2ccc(O)c(C)c2)c1 ... 115 % of control
3. CCCN(C(=O)CCl)c1ccccc1 ... 94 % of control
4. Cc1ccc(CNC2=C(Cl)C(=O)c3ccccc3C2=O)cc1C ... 87 % of control

Exercise: What measured T/C goes with COc1ccc2c3c([nH]c2c1)C(C)=NCC3 ?
Key: 93 % of control

Exercise: What measured T/C goes with O=C(O)c1ccc(I)cc1.[Ni] ?
Key: 100 % of control

Exercise: What measured T/C goes with NC(CSS(=O)(=O)O)=NCCc1ccc(O)cc1 ?
Key: 110 % of control

Exercise: What measured T/C goes with CN1CCCCC1C[CH2][Sn]([c]1ccccc1)([c]1ccccc1)[c]1ccccc1 (centres undefined) ?
Key: 96 % of control

Exercise: What measured T/C goes with O=c1[nH]c2c(N3CCOCC3)cccc2o1 ?
Key: 93 % of control

###

System: L1210 leukemia ip in BDF1 mice, survival T/C
experimental.protocol: NCI In Vivo Anticancer Drug Screen. Data for tumor model L1210 Leukemia (intraperitoneal) in B6D2F1 (BDF1) mice
experimental.conditions: endpoint: mean survival time; dose: 200.0 mg/kg/injection; schedule: Q01DX009 (ip); vehicle: saline; higher = longer survival
Experimental: The antitumor activity of compounds was measured in mice bearing transplantable tumors. Survival or tumor size were measured and the results are expressed as the measurement made in the treated group (T) divided by the measurement made in the vehicle treated control group (C). The tumor model used in this assay is L1210 Leukemia (intraperitoneal) in B6D2F1 (BDF1) mice
Toxic doses and inconclusive results are not listed.
quantity: T/C

1) CCN(CC)C(N)=O ... 118 % of control
2) c1ccc(CC(Cc2ccccc2)CN2CCCC2)cc1 ... 102 % of control
3) Cc1cccc(=O)n1CCC#N ... 106 % of control
4) CC(C)=CCC/C(C)=C/CN1C(=O)CN(C)C1=O ... 98 % of control
5) NC1=NC2OC(CO)C(O)C2O1 (centres undefined) ... 95 % of control

Exercise: What measured T/C goes with CCC(=O)OC1CC2(C)C(=CC1=O)CCC1C2CCC2(C)C(OC(=O)CC)CCC12 (centres undefined) ?
Key: 96 % of control

Exercise: What measured T/C goes with Nc1cc(=O)[nH][nH]1 ?
Key: 106 % of control

Exercise: What measured T/C goes with CN(C)CCNS(C)(=O)=O ?
Key: 105 % of control

Exercise: What measured T/C goes with CC1OCC(C)(CO)CO1 (centres undefined) ?
Key: 98 % of control

Exercise: What measured T/C goes with CC1=C(/C=C/C(C)=N/NC(N)=O)C(C)(C)CCC1 ?
Key: 100 % of control

Exercise: What measured T/C goes with CN(C)C1CCN(Cc2ccccc2)CC1 ?
Key: 93 % of control

Exercise: What measured T/C goes with CCN(CC)CC(=O)NCC(CC)(CCN1CCCCC1)c1cccc2ccccc12 (centres undefined) ?
Key: 102 % of control

Exercise: What measured T/C goes with CC(CC(O)c1ccccc1)c1ccccc1 (centres undefined) ?
Key: 97 % of control

Exercise: What measured T/C goes with Nc1ccnc(Br)c1 ?
Key: 100 % of control
